- experimental.system: T1, BsoBI restriction endonuclease (UniProt P70985 P70985:1-323)
- T1 sequence: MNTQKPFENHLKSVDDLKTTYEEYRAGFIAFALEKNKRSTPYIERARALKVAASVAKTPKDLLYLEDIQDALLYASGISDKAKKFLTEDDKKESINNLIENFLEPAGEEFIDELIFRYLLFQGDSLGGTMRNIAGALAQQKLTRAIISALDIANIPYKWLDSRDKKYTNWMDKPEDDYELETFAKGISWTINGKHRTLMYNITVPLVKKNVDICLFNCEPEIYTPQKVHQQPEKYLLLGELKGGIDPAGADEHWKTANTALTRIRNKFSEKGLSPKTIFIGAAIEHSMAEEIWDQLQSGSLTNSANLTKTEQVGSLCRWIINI
- measurement.notes: filter; 4 mM CaCl2, 100 mM NaCl, pH 7.5, room temp; ±0.9
- study.conditions: tags: untagged, expressed from pRRS-bsoBIR in E. coli ER2683; chain copies: 2 inferred; label: 33P 5' end
observed.property: Kd (pM)
Kindly answer with a numeric value in pM, unit omitted.

Prompt: Check the records and state Kd for S3 (CTCGGG/CCCGAG) (dsDNA) DNA 1: GAGTGTTATGGGTAGCTCGGGTGAAGTGGGAATATC DNA 2: GATATTCCCACTTCACCCGAGCTACCCATAACACTC
Completion: 5.3
